# System: SF-295 CNS
# assayProtocol: NCI tumour cell line growth inhibition, 48 h; in the data active = GI50 below about 0.43 µM; inactive = the rest
// one of label 1 for active, label 0 for inactive, no free text

Ask | Please state the recorded outcome for this molecule: `C[CH2][Sn]([CH2]C)([O]C(=O)c1ccc(F)cc1)[O][Sn]([CH2]C)([CH2]C)[O]C(=O)c1ccc(F)cc1`
Reply | label 0

Ask | Assay result, entry `C/C(=C\c1ccn(-c2ccc(N)cc2F)n1)[C@@H]1C[C@@H]2O[C@]2(C)CCC[C@H](C)[C@H](O)[C@@H](C)C(=O)C(C)(C)[C@@H](O)CC(=O)O1` — outcome?
Reply | label 1

Ask | Assay outcome for `Nc1nc(-c2ccccc2)cc(-c2ccc(Cl)cc2)c1-c1nc2ccccc2o1` : what was it?
Reply | label 0

Ask | Look up the recorded call for `C=C1C(=O)O[C@H]2[C@H]1CC/C(COC(=O)NCc1cc(OC)cc(OC)c1)=C\CC[C@@]1(C)O[C@@H]21` in this test.
Reply | label 0

Ask | What was the test verdict on `O=[N+]([O-])c1cc2c(c([N+](=O)[O-])c1)Nc1ccccc1O2` ?
Reply | label 0

Ask | Can you look up the reported call for Cc1ccc(C2=NN(c3ccc(S(N)(=O)=O)cc3)C(c3cn(-c4ccccc4)nc3-c3ccccc3)C2)cc1 (centres undefined) for me?
Reply | label 0

Ask | What did this assay record as the result for `COC1=C(OC)[C@]2(OC)c3c(O)c(OC)c4c(c3O[C@@]23O[C@@H](c2ccccc2)CC=C3C1=O)[C@@H](O)C[C@H](c1ccccc1)O4` ?
Reply | label 0

Ask | How was `Nc1nc(-c2ccc(Cl)cc2)cc(-c2ccccc2)c1-c1nc2ccccc2o1` classified in this test?
Reply | label 0

Ask | Which outcome was assigned to `CC[CH2][Sn]([CH2]CC)([O]C(=O)Cc1ccc(F)cc1)[O][Sn]([CH2]CC)([CH2]CC)[O]C(=O)Cc1ccc(F)cc1` in this test?
Reply | label 0

Ask | Dear colleague, could you share the recorded outcome for `C=C(C)[C@@H]1CC[C@]2(C(N)=O)CC[C@]3(C)[C@H](CC[C@@H]4[C@@]5(C)C/C(=C/c6cccnc6)[C@H](O)C(C)(C)[C@@H]5CC[C@]43C)[C@@H]12` when you have a moment?
Reply | label 0

Ask | Look up the recorded call for COc1cc2c(cc1OCCCN1CCN(c3ncnc4ccccc34)CC1)N=CC1CCCN1C2=O (centres undefined) in this test.
Reply | label 1

Ask | Hi, sorry to bother you, what did the test record for `c1ccc2c3c(ccc2c1)-c1c(ccc2c(NCCCCN4CCCCC4)cccc12)C3` ?
Reply | label 0

Ask | Hello, I am checking results. What call was entered for `Nc1ccc(-c2ccc(-c3nc4cc(Cl)c(Cl)cc4[nH]3)cc2)cc1` ?
Reply | label 1

Ask | What outcome does the record of this test show for C=CCSSc1ncnc2c1ncn2C1OC(CO)C(O)C1O (centres undefined) ?
Reply | label 0

Ask | Could you please tell me the result logged for `O=C(O)c1ccccc1Nc1ccc2nnc(-c3ccncc3)n2n1` in this assay?
Reply | label 0

Ask | Recorded test outcome, item `Nc1ccccc1C#Cc1ccccc1C#Cc1cnccn1`
Reply | label 0

Ask | Just curious, what result did `C[C@@H]1OCC2(CCN(c3cnc(Sc4ccnc(N)c4Cl)c(N)n3)CC2)[C@@H]1N` get here?
Reply | label 0

Ask | Tell me the assay call for C/C=C/C1=CN2C(=O)c3cc(OC4OC(C)C(NC)C(C)(O)C4O)c(C)c(O)c3N=C[C@@H]2C1 (some centres undefined) please.
Reply | label 1

Ask | GET /call?item= `COc1cc(N2CCC(N3CCN(C)CC3)CC2)ccc1Nc1ncc(Cl)c(Nc2ccccc2S(=O)(=O)C(C)C)n1` returns the recorded outcome of this test.
Reply | label 0
